# Tested on: PPARg DBDmut IVT, anti-PPARg (DBD mutation: PPARg1 K132A/R137A, NR concentration 270 nM)
# Experimental protocol: PBM binding z-score (relative to random genomic background probes); higher = stronger binding; sequences stand for … in GC…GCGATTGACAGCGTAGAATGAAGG
PBM binding z-score values for the sequences below.
Quick one: just the number, no unit, thanks!

Past entries and their recorded results:
{"Ordered residues": "ATCTCTATGTAACAAGTTCAGTGAAAGAGAGGAC", "PBM binding z-score": 0.92}
{"Ordered residues": "GCGGACAGGTGAAACGCAGGTAACTCAGGGTGGC", "PBM binding z-score": -1.81}

Could you now consider this next sequence?
State the recorded PBM binding z-score for this entry: `ACTATTAGTTGACTTAGGGAAACCGATACGACGC`
1.45

###

# Tested on: THRa:RXRa (NR concentration 90 nM, RXRa partner concentration 90 nM)
# Experimental protocol: PBM binding z-score (relative to random genomic background probes); higher = stronger binding; sequences stand for … in GC…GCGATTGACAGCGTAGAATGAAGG
PBM binding z-score values for the sequences below.
Quick one: just the number, no unit, thanks!

{"Ordered residues": "CCTACTGGGCCGAAAAGGTCATTGATGCCGATAA", "PBM binding z-score": 3}
{"Ordered residues": "ATACCAAGGTGGTCGTGAGGTCGTTGATACTAAC", "PBM binding z-score": 3.02}

Could you now consider this next sequence?
State the recorded PBM binding z-score for this entry: `CCTACTGGGCCAAAAAGGTCATTGTTGCCGATAA`
2.92

###

# System: VDR:RXRa (NR concentration 270 nM, RXRa partner concentration 90 nM)
# Experimental protocol: PBM binding z-score (relative to random genomic background probes); higher = stronger binding; sequences stand for … in GC…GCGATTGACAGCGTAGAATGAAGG
Result type: PBM binding z-score
Quick one: just the number, no unit, thanks!

Past entries and their recorded results:
{"Ordered residues": "TTACCAAGGTGAGCTGAGGTCGTTGCTCCAACTC", "PBM binding z-score": 4.1}
{"Ordered residues": "TCCAGTAGGTTAGGGGCATTCAGAATGGCGTCGA", "PBM binding z-score": 0.702}

Could you now consider this next sequence?
State the recorded PBM binding z-score for this entry: `CGTCCAAGGTCAATGCTAGGTCGGTGAAAGCATT`
4.11

###

# Test system: PXR:RXRa (NR concentration 270 nM, RXRa partner concentration 90 nM)
# Experimental protocol: PBM binding z-score (relative to random genomic background probes); higher = stronger binding; sequences stand for … in GC…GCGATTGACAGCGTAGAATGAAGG
PBM binding z-score values for the sequences below.
Quick one: just the number, no unit, thanks!

Past entries and their recorded results:
{"Ordered residues": "TCTTGTAGATCAAGCAGGTTAAGATAGCCTGAGT", "Numeric readout": 0.406}
{"Ordered residues": "TCAGACAGGTGGAGGTAACTCAGGTACGCAGTCG", "Numeric readout": 0.506}
{"Ordered residues": "TCATATAGGTAAACAGGTGAGAGTCCGTAAGTTA", "Numeric readout": 0.6}
{"Ordered residues": "GCTAGTTGGTCAGTAAAAGGTCAGACACCGGTCG", "Numeric readout": 3.35}
{"Ordered residues": "ATTTACGGGTCAACGAGGTTATAGCACGCGTATA", "Numeric readout": 5.6}

Look up PBM binding z-score with PXR:RXRa (NR concentration 270 nM, RXRa partner concentration 90 nM) for this sequence: `TCTTGTAGATCAAGCAGGTTAATAAAGCCTGAGT`
0.447

Look up PBM binding z-score with PXR:RXRa (NR concentration 270 nM, RXRa partner concentration 90 nM) for this sequence: `ATATGTAGGTTAGCCGGGGTCATTCAGACTAGGC`
6.72

Measured values drawn from the supplement of paper PMC6555819 for this set.
